biological target: T1, human IL-6 (human, UniProt P05231 30-212); experiment: SPR (Biacore T200), antibody from cell supernatant captured on Protein A, IL-6 flowed over, 37 C
T1 construct: also called interleukin-6
T1 sequence (P05231 30-212 limits assumed): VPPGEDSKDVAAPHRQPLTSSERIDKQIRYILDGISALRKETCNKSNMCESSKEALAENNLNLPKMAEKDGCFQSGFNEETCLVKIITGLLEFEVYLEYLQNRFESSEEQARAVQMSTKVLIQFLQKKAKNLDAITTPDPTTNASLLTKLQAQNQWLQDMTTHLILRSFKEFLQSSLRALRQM
measured attribute: kon (M⁻¹ s⁻¹)

binder="anti-IL-6 antibody, heavy chain T63Q, G66D / light chain WT (antibody, human IgG1, V domains shown, Derived as m2; Engineered human IgG1) VH: EVQLVESGGGLVQPGGSLRLSCAASGFTFSPFAMSWVRQAPGKGLEWVAKISPGGSWTYYSDQVTDRFTFSLDTSKSTAYLQMNSLRAEDTAVYYCARQLWGYYALDIWGQGTLVTVSS VL: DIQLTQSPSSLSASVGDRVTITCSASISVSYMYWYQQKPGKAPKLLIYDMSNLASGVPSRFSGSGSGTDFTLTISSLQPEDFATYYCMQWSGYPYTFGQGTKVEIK" measured_attribute=kon unit_abbreviation="M⁻¹ s⁻¹" recorded_measurement=2.01e+06
binder="anti-IL-6 antibody, heavy chain T65V, G66D / light chain WT (antibody, human IgG1, V domains shown, Derived as m2; Engineered human IgG1) VH: EVQLVESGGGLVQPGGSLRLSCAASGFTFSPFAMSWVRQAPGKGLEWVAKISPGGSWTYYSDTVVDRFTFSLDTSKSTAYLQMNSLRAEDTAVYYCARQLWGYYALDIWGQGTLVTVSS VL: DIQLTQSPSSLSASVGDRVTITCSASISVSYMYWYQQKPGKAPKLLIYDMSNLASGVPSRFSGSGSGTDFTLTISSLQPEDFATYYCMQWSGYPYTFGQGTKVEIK" measured_attribute=kon unit_abbreviation="M⁻¹ s⁻¹" recorded_measurement=2.88e+06
binder="anti-IL-6 antibody, heavy chain T63W, G66D / light chain WT (antibody, human IgG1, V domains shown, Derived as m2; Engineered human IgG1) VH: EVQLVESGGGLVQPGGSLRLSCAASGFTFSPFAMSWVRQAPGKGLEWVAKISPGGSWTYYSDWVTDRFTFSLDTSKSTAYLQMNSLRAEDTAVYYCARQLWGYYALDIWGQGTLVTVSS VL: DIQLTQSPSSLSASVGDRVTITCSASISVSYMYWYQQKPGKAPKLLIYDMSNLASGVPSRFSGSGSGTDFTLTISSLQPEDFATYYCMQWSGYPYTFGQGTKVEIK" measured_attribute=kon unit_abbreviation="M⁻¹ s⁻¹" recorded_measurement=1.7e+06
binder="anti-IL-6 antibody, heavy chain T65P, G66D / light chain WT (antibody, human IgG1, V domains shown, Derived as m2; Engineered human IgG1) VH: EVQLVESGGGLVQPGGSLRLSCAASGFTFSPFAMSWVRQAPGKGLEWVAKISPGGSWTYYSDTVPDRFTFSLDTSKSTAYLQMNSLRAEDTAVYYCARQLWGYYALDIWGQGTLVTVSS VL: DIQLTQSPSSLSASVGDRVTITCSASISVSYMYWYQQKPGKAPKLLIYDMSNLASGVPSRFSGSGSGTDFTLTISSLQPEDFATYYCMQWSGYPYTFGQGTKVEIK" measured_attribute=kon unit_abbreviation="M⁻¹ s⁻¹" recorded_measurement=1.54e+06
binder="anti-IL-6 antibody, heavy chain T63H, G66D / light chain WT (antibody, human IgG1, V domains shown, Derived as m2; Engineered human IgG1) VH: EVQLVESGGGLVQPGGSLRLSCAASGFTFSPFAMSWVRQAPGKGLEWVAKISPGGSWTYYSDHVTDRFTFSLDTSKSTAYLQMNSLRAEDTAVYYCARQLWGYYALDIWGQGTLVTVSS VL: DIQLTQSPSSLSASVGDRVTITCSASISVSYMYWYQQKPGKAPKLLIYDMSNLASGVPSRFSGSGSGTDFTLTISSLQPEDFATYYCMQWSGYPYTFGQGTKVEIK" measured_attribute=kon unit_abbreviation="M⁻¹ s⁻¹" recorded_measurement=1.98e+06
binder="anti-IL-6 antibody, heavy chain I51S, G66D / light chain WT (antibody, human IgG1, V domains shown, Derived as m2; Engineered human IgG1) VH: EVQLVESGGGLVQPGGSLRLSCAASGFTFSPFAMSWVRQAPGKGLEWVAKSSPGGSWTYYSDTVTDRFTFSLDTSKSTAYLQMNSLRAEDTAVYYCARQLWGYYALDIWGQGTLVTVSS VL: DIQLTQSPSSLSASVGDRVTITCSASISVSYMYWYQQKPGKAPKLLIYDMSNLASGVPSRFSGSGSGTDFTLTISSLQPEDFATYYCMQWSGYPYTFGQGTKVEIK" measured_attribute=kon unit_abbreviation="M⁻¹ s⁻¹" recorded_measurement=1.89e+06
binder="anti-IL-6 antibody, heavy chain T63L, G66D / light chain WT (antibody, human IgG1, V domains shown, Derived as m2; Engineered human IgG1) VH: EVQLVESGGGLVQPGGSLRLSCAASGFTFSPFAMSWVRQAPGKGLEWVAKISPGGSWTYYSDLVTDRFTFSLDTSKSTAYLQMNSLRAEDTAVYYCARQLWGYYALDIWGQGTLVTVSS VL: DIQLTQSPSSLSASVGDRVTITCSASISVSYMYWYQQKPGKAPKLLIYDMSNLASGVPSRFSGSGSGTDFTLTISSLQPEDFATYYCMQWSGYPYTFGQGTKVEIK" measured_attribute=kon unit_abbreviation="M⁻¹ s⁻¹" recorded_measurement=1.73e+06
